tested-on: STEP (Homo sapiens)
Sequence (P54829 1-565): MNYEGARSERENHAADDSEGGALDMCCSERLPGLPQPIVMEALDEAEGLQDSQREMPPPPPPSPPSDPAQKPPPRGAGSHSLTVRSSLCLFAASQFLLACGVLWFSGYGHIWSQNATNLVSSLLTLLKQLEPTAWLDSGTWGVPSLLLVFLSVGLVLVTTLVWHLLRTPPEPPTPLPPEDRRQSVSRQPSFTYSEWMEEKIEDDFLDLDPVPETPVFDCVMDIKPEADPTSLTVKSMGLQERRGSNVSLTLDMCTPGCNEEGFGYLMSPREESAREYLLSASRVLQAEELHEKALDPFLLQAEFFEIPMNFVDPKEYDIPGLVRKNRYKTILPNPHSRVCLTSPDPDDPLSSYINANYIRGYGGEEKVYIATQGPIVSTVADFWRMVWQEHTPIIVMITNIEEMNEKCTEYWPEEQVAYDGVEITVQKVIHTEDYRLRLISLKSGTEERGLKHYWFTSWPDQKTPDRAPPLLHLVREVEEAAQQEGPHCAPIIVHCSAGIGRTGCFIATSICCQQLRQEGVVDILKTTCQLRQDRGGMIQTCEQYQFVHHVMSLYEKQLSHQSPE
# IC50 values compiled below
Give just the numeric value; µM need not be written.

molecule	value-units	IC50
O=C(Nc1ccc(-c2ccsc2)cc1)C(=O)Nc1ccc(-c2cc3cc(F)c(-c4nnn[nH]4)nc3n2C2CCC2)cc1	µM	10.6

// moving on: another record for IC50
[Q] GET /values?readout=IC50&item= O=C(Nc1ccc(-c2cc3cc(F)c(-c4nnn[nH]4)cc3n2C2CCC2)cc1)C(=O)Nc1ccc(N2CCOCC2)cc1
[A] 0.77

* * *

procedure-text: Rat PK study (IV 1 mg/kg and PO 5 mg/kg)
Assay type: in vivo, male SD rats
test-settings: male, SD, rat, plasma, 5 mg/kg; PO, dose 5 mpk; read-out: PO AUC 0->t
Experimental: According to standard methods for rat PK studies in this field, the rat PK tests for the representative compounds of this disclosure and the positive control compound (11a-1) were conducted as follows. Specifically, six male SD rats (6-8 weeks old, weighing 200 ± 20 g, purchased from Vital River Laboratories) were randomly divided into two groups of three rats each, for intravenous (IV) and oral gavage (PO) administration, respectively. […]
# AUC(0-t) values compiled below
Give just the numeric value; ng·h/mL need not be written.

compound	measured-result
O=C(Nc1ccc(-c2cc3cc(F)c(-c4nnn[nH]4)cc3n2C2CCC2)cc1)C(=O)Nc1ccc(N2CCC(CO)CC2)cc1 [Example 23]	8010

// moving on: another record for AUC(0-t)
[Q] GET /values?readout=AUC(0-t)&item= CC1(n2c(-c3ccc(NC(=O)C(=O)Nc4ccc(N5CCC6(CCOC6)CC5)cc4)cc3)cc3cc(F)c(-c4nnn[nH]4)cc32)CCC1 [Example 68]
[A] 2100

* * *

tested-on: PRL2 (Homo sapiens, UniProt Q12974)
Sequence (Q12974 whole entry, species assumed): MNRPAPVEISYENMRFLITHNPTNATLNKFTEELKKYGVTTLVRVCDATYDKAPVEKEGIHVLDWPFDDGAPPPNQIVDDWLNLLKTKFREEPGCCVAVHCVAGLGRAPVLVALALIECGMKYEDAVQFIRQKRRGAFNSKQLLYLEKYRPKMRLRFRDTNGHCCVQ
measure: IC50

molecule	tested-on	IC50
O=C(Nc1ccc(-c2ccsc2)cc1)C(=O)Nc1ccc(-c2cc3ccc(-c4nnn[nH]4)nc3n2C2CCC2)cc1	PRL2 (Homo sapiens, UniProt Q12974)	> 50 µM
O=C(Nc1ccc(-c2oc3cc(F)c(-c4nnn[nH]4)cc3c2C2CCC2)cc1)C(=O)Nc1ccc(N2CCC3(CCOC3)CC2)cc1	PRL2 (Homo sapiens, UniProt Q12974)	> 100 µM

[Q] Field: IC50 (PRL2 (Homo sapiens, UniProt Q12974)). Entry: O=C(Nc1ccc(-c2ccsc2)cc1)C(=O)Nc1ccc(-c2cc3cc(F)c(-c4nnn[nH]4)nc3n2C2CCC2)cc1
[A] > 50 µM

[Q] Field: IC50 (PRL2 (Homo sapiens, UniProt Q12974)). Entry: O=C(Nc1ccc(-c2ccsc2)cc1)C(=O)Nc1ccc(-c2oc3cc(F)c(-c4nnn[nH]4)cc3c2C2CCC2)cc1
[A] > 50 µM

[Q] Field: IC50 (PRL2 (Homo sapiens, UniProt Q12974)). Entry: O=C(Nc1ccc(-c2ccsc2)cc1)C(=O)Nc1ccc(-c2cc3cc(F)c(-c4nnn[nH]4)cc3n2C2CCC2)cc1
[A] > 50 µM

[Q] Field: IC50 (PRL2 (Homo sapiens, UniProt Q12974)). Entry: O=C(Nc1ccc(-c2cc3cc(F)c(-c4nnn[nH]4)cc3n2C2CCC2)cc1)C(=O)Nc1ccc(N2CCOCC2)cc1
[A] > 100 µM
